# Test system: PHKG1
# CONDITIONS USED: concentration: 1 μM, replicates: in singlicate; n = 1;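 note: KINOMEscan kinase panel screen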
QUANTITY KIND: %Inh (%)
Reply numerically in %, unit not repeated.

COMPOUND	TESTED SYSTEM	UNIT DESCRIPTOR	%Inh
O=C(Nc1cccc(Oc2ccc3nc(NC(=O)C4CC4)cn3n2)c1)c1ccccc1C(F)(F)F	PHKG1	%	18

Tell me reported %Inh for Cn1cc(-c2ccc3c(c2)CCN3C(=O)Cc2cccc(F)c2)c2c(N)ncnc21 [GSK2603358] , tested with PHKG1. 1

Same for CCn1c(-c2nonc2N)nc2c(C#CC(C)(C)O)nc(OC[C@H](N)c3ccccc3)cc21 [GSK943949] 0

Same for O=c1[nH]cc(-c2ccc(N3CCOCC3)cc2)c2sc(-c3cn[nH]c3)cc12 [GSK2276055] 0

* * *

Let's look at some compounds and their measured %Inh.
# Test system: FER
# CONDITIONS USED: concentration: 1 μM, replicates: in singlicate; n = 1
Reply numerically in %, unit not repeated.

COMPOUND	UNIT DESCRIPTOR	%Inh
COc1cc2c(cc1OCCN1CCNCC1)ncc1c3ccc(C#N)cc3[nH]c21	%	0
c1ccc(-c2cnc3nccnn23)cc1 [AH20685]	%	0
CN(C)Cc1ccc(-c2ccc3c(Nc4ccc(Oc5ccccn5)cc4)ccnc3c2)o1 [GW567148]	%	20
c1ccc(-c2n[nH]cc2Nc2ccnc3ccccc23)nc1 [GW694077]	%	0
Cc1ccc(C(=O)Nc2ccc(Nc3ccnc4cc(-c5nccs5)ccc34)cc2O)cc1.Cl [GW494702]	%	34
CCn1c(-c2nonc2N)nc2c(C#CC(C)(C)O)nc(OC[C@H](N)c3ccccc3)cc21 [GSK943949]	%	0
CN(C)S(=O)(=O)c1cc(-c2ccc3nccc(-c4cccc(S(N)(=O)=O)c4)c3c2)cnc1N [GSK1669921]	%	5
Clc1ccc(-c2nn3ncccc3c2-c2ccnc(Nc3ccc4c(c3)OCCO4)n2)cc1 [GW829116]	%	0
C[C@@H]1CC[C@@H](C(=O)Nc2ccccc2)CN1c1cc(-c2ccc3c(N)n[nH]c3c2)nc(N)n1 [GSK2286062]	%	13
Cc1ccc(C)c(NC(=O)NC2CCN(c3ccnc(Nc4ccc(F)cc4)n3)C2)c1 (stereo not drawn) [GSK1379720]	%	2

Would you mind telling me what %Inh value was observed for COC(=O)Nc1nc2cc(Oc3ccc(NC(=O)Nc4cc(C(F)(F)F)ccc4F)cn3)ccc2[nH]1.Cl.Cl [GW681170] ? 23

Same for Oc1cc(Nc2ccnc3cc(I)ccc23)ccc1F [GW552771] 11

* * *

# System: GAK
# CONDITIONS USED: concentration: 1 μM, replicates: in singlicate; n = 1
Output condition met for %Inh not less than 70%; output condition not met otherwise.

Look over these answered cases.
COMPOUND	CLASS NAME
Cc1ccc(C(=O)Nc2ccc(Nc3ccnc4cc(-c5nccs5)ccc34)cc2O)cc1.Cl	condition not met
CCCCc1nn2ncccc2c1-c1ccnc(Nc2ccc(N3CCN(C)CC3)cc2)n1	condition met
O=c1[nH]cc(-c2ccc(N3CCOCC3)cc2)c2sc(-c3cn[nH]c3)cc12	condition not met
COC(=O)Nc1nc2ccc(Oc3ccc(NC(=O)Nc4cc(C(F)(F)F)ccc4F)cc3)cc2n1C.Cl	condition not met
COc1cc2c(cc1OCCN1CCNCC1)ncc1c3ccc(C#N)cc3[nH]c21	condition met
COc1cc(Nc2nccc(-c3c(-c4cccc(NC(=O)c5c(F)cccc5F)c4)nn4ncccc34)n2)cc(OC)c1OC	condition not met
CCS(=O)(=O)c1ccc(OC)c(Nc2nccc(-c3c(-c4cccc(NC(=O)c5c(F)cccc5F)c4)nn4ncccc34)n2)c1	condition not met
CN(C)Cc1ccc(-c2ccc3c(Nc4ccc(Oc5ccccn5)cc4)ccnc3c2)o1	condition met

Item Cl.Cl.NCC(C(=O)Nc1cc(Br)c(-c2ccnc3[nH]ccc23)s1)c1ccccc1 (stereo not shown) with %Inh of 70% or above? condition met

Same for Nc1ncc(-c2cccnc2)c2scc(-c3ccc4c(c3)CCN4C(=O)Cc3ccccc3)c12 condition not met

Same for COc1ccc(-c2coc3ccc(-c4nnc(SCc5ccc(OC)c(C(F)(F)F)c5)o4)cc23)cc1 condition not met

Same for CCn1c(-c2nonc2N)nc2c(C#CC(C)(C)O)ncc(OCCCCN)c21.O=C(O)C(F)(F)F.O=C(O)C(F)(F)F condition not met

* * *

Let's look at some compounds and their measured %Inh.
# System: MLCK
# Construct: gene MYLK3
# CONDITIONS USED: concentration: 1 μM, replicates: in singlicate; n = 1
Reply numerically in %, unit not repeated.

STRUCTURE AS SMILES	UNIT DESCRIPTOR	%Inh
COc1cc(Nc2nccc(-c3c(-c4cccc(NC(=O)c5c(F)cccc5F)c4)nn4ncccc34)n2)cc(OC)c1OC	%	47
COc1cc(Nc2nccc(-c3c(-c4cccc(NC(=O)c5c(F)cccc5F)c4)nn4ccccc34)n2)cc(OC)c1OC	%	9
Oc1cc(Nc2ccnc3cc(I)ccc23)ccc1F	%	0
CN(C)Cc1ccc(-c2ccc3c(Nc4ccc(Oc5ccccn5)cc4)ccnc3c2)o1	%	0
COc1cccc(-c2ccc3c(NC(=O)C4CC4)n[nH]c3n2)c1	%	47

Would you mind telling me what %Inh value was observed for O=C(Nc1cccc(-c2nn3ccccc3c2-c2ccnc(Nc3cccc(C(F)(F)F)c3)n2)c1)c1c(F)cccc1F ? 0

Same for Nc1ncc(-c2cccnc2)c2scc(-c3ccc4c(c3)CCN4C(=O)Cc3ccccc3)c12 14

Same for Cl.NC(=O)c1cccc(Nc2nccc(Nc3ccc(Oc4c(Cl)cccc4Cl)c(Cl)c3)n2)c1 0

Same for CC(C)(C)c1ccc2nccc(Nc3cccc(O)c3)c2c1 0

Same for COc1cc(Nc2ncc3c(C)nc(-c4cc5ccccc5[nH]4)n3n2)cc(OC)c1OC 36

* * *

# System: TEC
# CONDITIONS USED: concentration: 1 μM, replicates: in singlicate; n = 1
Let's look at some compounds and their measured %Inh.
Reply numerically in %, unit not repeated.

Some entries whose results are on file:
COMPOUND	UNIT DESCRIPTOR	NUMBER
CC(C)c1nc(-c2cccc(NS(=O)(=O)c3c(F)cccc3F)c2F)c(-c2ccnc(Nc3ccc(N4CCOCC4)nc3)n2)s1 [GSK2008607]	%	85
CN(c1ccc(NC(=O)Nc2cc(C(F)(F)F)ccc2F)cc1)c1ccnc(Nc2ccc(S(N)(=O)=O)cc2)n1 [GW809893]	%	0
COc1cccc(C(=O)Nc2cccc(Oc3ccc4nc(NC(=O)C5CC5)cn4n3)c2)c1	%	9
CSc1cccc2c(-c3ccncn3)c(-c3ccc(F)cc3)nn12 [GW514786]	%	0
COc1cc(Nc2ncc3c(C)nc(-c4cc5ccccc5[nH]4)n3n2)cc(OC)c1OC [GW869516]	%	0

Would you mind telling me what %Inh value was observed for Cl.NC(=O)c1cccc(Nc2nccc(Nc3ccc(Oc4c(Cl)cccc4Cl)c(Cl)c3)n2)c1 [GW659009] ? 0

* * *

# System: MET
# CONDITIONS USED: concentration: 1 μM, replicates: in singlicate; n = 1
QUANTITY KIND: %Inh (%)
Reply numerically in %, unit not repeated.

Some entries whose results are on file:
COMPOUND	QUANTITY KIND	UNIT DESCRIPTOR	NUMBER
Cc1cccc(Nc2nc(N[C@H]3CCNC3)ncc2C(N)=O)c1.Cl [GSK2197149]	%Inh	%	0
Clc1ccc(-c2nn3ncccc3c2-c2ccnc(Nc3ccc4c(c3)OCCO4)n2)cc1 [GW829116]	%Inh	%	0
Cl.Cl.NCC(NCc1ccc(-c2ccnc3[nH]ccc23)s1)c1ccccc1 (stereo not shown) [GSK1321565]	%Inh	%	0
COc1cc(Nc2nccc(-c3c(-c4cccc(NC(=O)c5c(F)cccc5F)c4)nn4ncccc34)n2)cc(OC)c1OC [GSK327238]	%Inh	%	79

Would you mind telling me what %Inh value was observed for O=C(Nc1cccc(-c2nn3ccccc3c2-c2ccnc(Nc3cccc(F)c3)n2)c1)c1c(F)ccc(F)c1Cl [GSK357952] ? 0

* * *

# Tested on: INSRR
# CONDITIONS USED: concentration: 1 μM, replicates: in singlicate; n = 1
QUANTITY KIND: %Inh
Answer format reminder: number followed by unit.

Some entries whose results are on file:
MOLECULE	%Inh
C[C@@H](Oc1cc(-n2cnc3cc(-c4ccnc(NCCS(C)(=O)=O)c4)ccc32)sc1C(N)=O)c1ccccc1Cl	2%
Cl.Cl.NCC(C(=O)Nc1cc(Br)c(-c2ccnc3[nH]ccc23)s1)c1ccccc1 (stereo not shown)	0%
COc1cccc(C(=O)Nc2cccc(Oc3ccc4nc(NC(=O)C5CC5)cn4n3)c2)c1	0%
CN1CCN(Cc2cccc(-c3ccc4c(Nc5ccc(Oc6ccccc6)cc5)ccnc4c3)c2)CC1	6%
CNC(=O)c1ccccc1Nc1nc(Nc2ccc(N3CCOCC3)cc2)ncc1Cl.Cl	98.6%

Would you mind telling me what %Inh value was observed for O=C(Nc1n[nH]c2cc(-c3ccoc3)ccc12)C1CC1 ? 0%

Same for CC(=O)Nc1nc2cnc(Nc3cc(NC(=O)c4cccc(C5(C#N)CC5)c4Cl)ccc3C)nc2s1 0%

Same for Cl.Cl.NCC(NC(=O)c1cc(-c2ccccc2)c(-c2ccnc3[nH]ccc23)s1)c1ccccc1 (stereo not shown) 0%

Same for O=C(Nc1n[nH]c2nc(-c3ccc(O)cc3)ccc12)C1CC1 0%

Same for O=C(Nc1cccc(-c2nn3ncccc3c2-c2ccnc(Nc3ccccc3)n2)c1)c1c(F)cccc1F 0%
